tgt: Dimeric Mouse Ang-2FD conjugated to human IgG1 (mouse (Mus musculus))
Sequence (chain, as listed by the source limits assumed): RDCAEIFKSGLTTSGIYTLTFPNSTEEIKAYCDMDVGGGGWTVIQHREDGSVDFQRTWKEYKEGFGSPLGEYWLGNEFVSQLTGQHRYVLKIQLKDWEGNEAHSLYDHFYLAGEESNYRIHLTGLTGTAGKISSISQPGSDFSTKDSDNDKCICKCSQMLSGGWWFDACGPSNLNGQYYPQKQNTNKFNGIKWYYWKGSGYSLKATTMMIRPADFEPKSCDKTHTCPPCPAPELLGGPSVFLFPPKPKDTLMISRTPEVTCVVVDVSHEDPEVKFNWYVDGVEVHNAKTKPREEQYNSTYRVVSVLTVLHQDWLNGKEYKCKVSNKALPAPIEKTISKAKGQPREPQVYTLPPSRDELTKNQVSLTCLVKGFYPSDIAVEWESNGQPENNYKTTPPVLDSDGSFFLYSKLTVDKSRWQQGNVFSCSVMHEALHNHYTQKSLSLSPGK
experimental.protocol: SPR, human IgG1 antibody captured
measured.attribute: T1/2 (h)
Report only the number, with the unit h understood.

Problem: Consider the binder H1H732N (antibody, V domains shown) VH: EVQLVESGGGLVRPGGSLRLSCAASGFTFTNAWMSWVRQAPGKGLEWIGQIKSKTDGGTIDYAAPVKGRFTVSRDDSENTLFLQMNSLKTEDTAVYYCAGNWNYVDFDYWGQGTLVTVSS VL: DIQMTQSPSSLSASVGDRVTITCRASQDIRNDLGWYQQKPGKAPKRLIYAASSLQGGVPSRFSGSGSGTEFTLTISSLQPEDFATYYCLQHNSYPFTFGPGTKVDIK . State its measured T1/2.
Solution: 0.85

Problem: Consider the binder H1H743N (antibody, V domains shown) VH: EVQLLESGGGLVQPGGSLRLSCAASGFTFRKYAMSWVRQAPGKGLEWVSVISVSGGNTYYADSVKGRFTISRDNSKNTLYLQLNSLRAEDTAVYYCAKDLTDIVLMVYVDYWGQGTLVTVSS VL: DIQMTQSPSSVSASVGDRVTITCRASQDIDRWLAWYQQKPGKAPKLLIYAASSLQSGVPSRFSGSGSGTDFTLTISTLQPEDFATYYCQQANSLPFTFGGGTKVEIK . State its measured T1/2.
Solution: 3.88

Problem: Consider the binder H1H693P (antibody, human IgG1, V domains shown) VH: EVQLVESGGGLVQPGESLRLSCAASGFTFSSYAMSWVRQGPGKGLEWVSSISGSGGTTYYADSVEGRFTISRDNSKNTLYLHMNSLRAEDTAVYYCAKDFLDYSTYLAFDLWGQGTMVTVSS VL: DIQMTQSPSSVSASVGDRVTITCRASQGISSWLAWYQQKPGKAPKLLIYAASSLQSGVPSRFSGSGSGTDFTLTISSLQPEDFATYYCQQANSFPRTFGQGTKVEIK . State its measured T1/2.
Solution: 1.06

Problem: Consider the binder H1H750N (antibody, V domains shown) VH: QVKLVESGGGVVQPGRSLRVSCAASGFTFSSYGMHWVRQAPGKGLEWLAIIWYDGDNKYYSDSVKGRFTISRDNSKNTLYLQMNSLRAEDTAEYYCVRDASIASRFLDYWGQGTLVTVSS VL: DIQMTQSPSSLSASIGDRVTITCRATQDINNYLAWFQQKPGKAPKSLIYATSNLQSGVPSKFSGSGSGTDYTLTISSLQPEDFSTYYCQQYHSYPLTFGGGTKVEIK . State its measured T1/2.
Solution: 2.02
